Target: Bromodomain-containing protein 4 (Homo sapiens)
Conditions: Compound concentration 20.0 uM, Protein concentration 2.0 uM, Result type QC Liability
// reported ΔTm for each item listed

// solved cases for ΔTm follow
{"columns": ["compound", "ΔTm"],
 "data": [
  ["COCCOCn1c(S(C)(=O)=O)nc2c1c(=O)n(C)c(=O)n2C", "-12.2 °C"],
  ["COc1nc2ccc([C@@](O)(c3ccccc3)C3CCN(C(C)=O)CC3)cc2c(Cl)c1Cc1ccc(-n2cccn2)cc1", "-3.41 °C"],
  ["Cc1ncsc1-c1ccc(CNC(=O)[C@@H]2C[C@@H](O)CN2C(=O)[C@@H](NC(=O)CCCCNC(=O)c2ccc(-c3ccc(N4CCN(C)CC4)c(NC(=O)c4c[nH]c(=O)cc4C(F)(F)F)c3)cc2)C(C)(C)C)cc1", "-6.12 °C"],
  ["CN(C)C(=O)Cn1cc(-c2ccc(-c3nnc4ccccn34)cc2)cn1", "-1.96 °C"],
  ["COc1cc(C(=O)NC2CCN(C)CC2)ccc1Nc1ncc2c(n1)N(C1CCCC1)CC(F)(F)C(=O)N2C", "7.37 °C"]
]}

The value of ΔTm measured for the compound CC(C)c1cnc(NC(=O)Cc2ccccc2)s1 turned out to be -1.14 °C

Per the record, CCC(C(=O)Nc1ccc(-c2cc3ccccc3s2)c(C(N)=O)c1)c1nccs1 (stereo not drawn) has ΔTm of -0.87 °C

Looking up Cn1cc(-n2cnc3c(NCc4nc5cc(Cl)c(Cl)cc5[nH]4)nc(N4CCOCC4)nc32)cn1 , I found its ΔTm recorded as 0.71 °C

====

Below, each of the compounds is paired with its reported ΔTm value.
Target: Bromodomain-containing protein 4 (Homo sapiens) (UniProt O60885)
Settings: Compound concentration 20.0 uM, Protein concentration 2.0 uM, Result type QC Liability
Numbered stars: 1 amine (or outer) side, 2 acyl side, 3 side chain; on linkers, the order of the positions; unused ones are H or OH. Bridge positions count the residues as written; N and C are the ends. Square brackets hold non-standard residues; d marks the D form. Peptide text beside a SMILES is read from it. I, II: the chains in the order shown. Hexamethylenediamine = C(CCCN[*:2])CCN[*:1]; Dip = N[C@H](C(=O)O)C(c1ccccc1)c1ccccc1; Chg = N[C@H](C(=O)O)C1CCCCC1; NMeA = CN[C@@H](C)C(=O)O
Return type: number; implicit unit °C.

Answered cases to consult:
{"columns": ["compound", "system", "readout-unit", "ΔTm"],
 "data": [
  ["Cc1cc(CN)cc(C)c1-c1ncn(C)c1-c1cncn1C", "Bromodomain-containing protein 4 (Homo sapiens) (UniProt O60885)", "°C", -1.42],
  ["CN[C@@H](C)C(=O)N[C@H](C(=O)N1CCC[C@H]1C(=O)N[C@H](C(=O)NCCCCCCNC(=O)[C@@H](NC(=O)[C@@H]1CCCN1C(=O)[C@@H](NC(=O)[C@H](C)NC)C1CCCCC1)C(c1ccccc1)c1ccccc1)C(c1ccccc1)c1ccccc1)C1CCCCC1 (I: H-[NMeA][Chg]P[Dip] / II: H-[NMeA][Chg]P[Dip]; linker I:C-II:C via Hexamethylenediamine)", "Bromodomain-containing protein 4 (Homo sapiens) (UniProt O60885)", "°C", -4.77]
]}

Next:
ΔTm reading for Cn1ncc(NC(=O)c2nc(-c3c(F)cccc3F)sc2N)c1N1CC[C@@H](N)[C@H](F)CC1 : -1.02

====

The reader will find reported ΔTm values listed item by item below.
Target: Bromodomain-containing protein 4 (Homo sapiens)
Details: Compound concentration 20.0 uM, Protein concentration 2.0 uM, Result type QC Liability
I only need the number, in °C, no unit after it.

Example cases with answers are listed next.
{"columns": ["molecule", "readout-label", "val"],
 "data": [
  ["Cc1cc(S(=O)(=O)N2CC(C)(C)c3cc(-c4ccc(C(F)(F)F)cc4)ccc32)ccc1OCC(=O)O", "ΔTm", 0.64],
  ["CNC(=O)c1ccc2c(c1)NC(=O)/C2=C(\\Nc1ccc(CN2CCCCC2)cc1)c1ccccc1", "ΔTm", -3.03],
  ["O=C(CNC(=O)c1ccc(-c2ccccc2)cc1)NC1CCCc2ccccc21 (stereo not drawn)", "ΔTm", -5.93],
  ["COC(=O)c1ccc2c(c1)NC(=O)/C2=C(\\Nc1ccc(-c2nccn2C)cc1)c1ccccc1", "ΔTm", -1.87],
  ["C/C=C1\\C(=O)CC2C3CCC4=CC(=O)CC[C@]4(C)C3CC[C@]12C (stereo partly drawn)", "ΔTm", -2.62],
  ["CCN(C)S(=O)(=O)Nc1cccc(-c2ccc3c(NC(=O)C4CC4)n[nH]c3c2)c1", "ΔTm", 0.55],
  ["O=C(NCCN1CCOCC1)c1ccc2nn(CCOc3ccc(Cl)cc3)cc2c1", "ΔTm", 0.04],
  ["O=C(O)CCCCN(CCc1ccccc1OCc1ccc(CCc2ccccc2)cc1)Cc1ccc(C(=O)O)cc1", "ΔTm", -0.88],
  ["O=C(O)CCC/C=C\\C[C@@H]1[C@@H](/C=C/[C@@H](O)COc2cccc(C(F)(F)F)c2)[C@H](O)C[C@@H]1O", "ΔTm", -0.49],
  ["Cc1c(CCC(=O)O)cccc1NC(=O)[C@@H](c1ccc(-c2cncc(Cl)c2)c(F)c1)C1CCCC1", "ΔTm", 0.73]
]}

ΔTm on Bromodomain-containing protein 4 (Homo sapiens) for O=C(NC[C@@H]1[C@H]2CN(C(=O)OCc3cc(C(F)(F)F)cc(C(F)(F)F)c3)C[C@@H]12)c1ccc2[nH]nnc2c1 is 2.07

Bromodomain-containing protein 4 (Homo sapiens) assay, molecule CN1CCCN(C(=O)c2cccc(-c3ccc(/C=C4/C(=O)Nc5ccc(Cl)cc54)o3)c2)CC1 , recorded ΔTm = -4.14

The reported Bromodomain-containing protein 4 (Homo sapiens) ΔTm of CNc1ncc2cc(-c3ccc(-c4ncccc4F)cc3Cl)c(=O)n(C[C@H]3OC[C@H](N)CO3)c2n1 is -2.59

Bench note, Bromodomain-containing protein 4 (Homo sapiens): CCOC(=O)c1ccc(CN(Cc2ccc(-c3cccc(S(C)(=O)=O)c3)cc2)S(=O)(=O)c2c(C)cc(C)cc2C)o1 , ΔTm reads -4.78

====

Target: Transcription intermediary factor 1-alpha (Homo sapiens)
Conditions: Compound concentration 20.0 uM, Protein concentration 2.0 uM, Result type QC Liability
Please assign condition not met whenever ΔTm is at or above -1 °C, and condition met whenever it is below.

Examples with answers:
{"columns": ["compound", "group-label"],
 "data": [
  ["CC1CCN(c2ccnc(NCc3cn(C)cn3)n2)CC1", "condition not met"],
  ["C=CC(=O)Nc1ccc(C(=O)Nc2[nH]nc3c2CN(C(=O)N[C@H](CN(C)C)c2ccccc2)C3(C)C)cc1", "condition met"],
  ["O=C(O)c1cccc(C2=C(c3cc(Cl)ccc3OCc3ccc(F)cc3F)CCC2)n1", "condition met"]
]}

Task item: Decide: ΔTm of COc1cc(-c2cn(C)c(=O)c3cnccc23)cc(OC)c1CN(C)C strictly below -1 °C?
Reply: condition not met

Task item: Quick check: ΔTm of CC(=O)c1ccc2c(c1)/C(=C(/NC1CCN(C)CC1)c1ccc3c(c1)OCO3)C(=O)N2 under -1 °C?
Reply: condition not met

Task item: hey, is ΔTm for O=S(=O)(Nc1ccc(C(O)(C(F)(F)F)C(F)(F)F)cc1)c1cccs1 lower than -1 °C or not?
Reply: condition not met

Task item: Criterion: ΔTm strictly below -1 °C. Is it met by O=C(O)c1cc(-c2ccccc2)ccc1O ?
Reply: condition met

Task item: I wonder whether CCN(C(=O)CO)[C@H]1CN(/C(=N\C#N)Nc2cccc(OC(F)F)c2)N=C1c1ccc(Cl)c(Cl)c1 has ΔTm below -1 °C. Can you tell?
Reply: condition not met

Task item: Lab note: ΔTm threshold -1 °C. Does this compound come in strictly under it? CC(C=CC1=C(C)CCCC1(C)C)=CC=CC(C)=CC(=O)O
Reply: condition met

Task item: Report whether reported ΔTm is lower than -1 °C (strictly) for COc1cc2ncnc(Nc3ccc4c(cnn4Cc4ccccc4)c3)c2cc1OC
Reply: condition met

====

Target: Transcription intermediary factor 1-alpha (Homo sapiens)
Details: Compound concentration 20.0 uM, Protein concentration 2.0 uM, Result type QC Liability
Field 'label' (enum: 1 (yes) / 0 (no)). Set to 1 (yes) when ΔTm is strictly under -0.6 °C; else 0 (no).

{"columns": ["test-smiles", "system", "group-label"],
 "data": [
  ["Cc1nccc(COC(=O)N2C[C@@H]3[C@@H](CNC(=O)c4ccc5[nH]nnc5c4)[C@@H]3C2)n1", "Transcription intermediary factor 1-alpha (Homo sapiens)", "0 (no)"],
  ["N#Cc1c(SCc2csc(-c3ccc(Cl)cc3)n2)nc(N2CCCC2)c(C#N)c1-c1ccc(OCCO)cc1", "Transcription intermediary factor 1-alpha (Homo sapiens)", "0 (no)"],
  ["C[C@H]1CN(C2COC2)CCN1c1ccc(Nc2cc(-c3ccnc(N4CCn5c(cc6c5CC(C)(C)C6)C4=O)c3CO)cn(C)c2=O)nc1", "Transcription intermediary factor 1-alpha (Homo sapiens)", "0 (no)"],
  ["CN(C)c1ncc2cc(-c3ccc(-c4ncccc4F)cc3Cl)c(=O)n(C[C@H]3OC[C@H](N)CO3)c2n1", "Transcription intermediary factor 1-alpha (Homo sapiens)", "1 (yes)"],
  ["CC(C)(O)CNC(=O)N1C(=O)N(c2cccc(C(F)(F)F)c2)C2=C(C(=O)CC2)[C@H]1c1ccc(C#N)cc1", "Transcription intermediary factor 1-alpha (Homo sapiens)", "0 (no)"]
]}

Task item: API: query returns whether the compound falls strictly under -0.6 °C in ΔTm. Query: O=C(N[C@H](Cc1ccccc1)C(=O)O)c1cccc(OCc2cccnc2)c1
Reply: 1 (yes)

Task item: Please let me know if C[C@@H]1Cc2c([nH]c3ccccc23)[C@@H](c2c(F)cc(/C=C/C(=O)O)cc2F)N1CC(C)(C)F shows ΔTm below -0.6 °C.
Reply: 1 (yes)

Task item: I wonder whether CC(C)(C#Cc1ccc(NC(=O)COc2ccccc2C(=O)c2ccccc2)c(Cl)c1)C(=O)O has ΔTm below -0.6 °C. Can you tell?
Reply: 0 (no)
